The reported measurements were obtained from ChEMBL document CHEMBL1132081.

# TARGET: Muscarinic acetylcholine receptor M1 (Homo sapiens, UniProt P11229)
# Sequence (P11229 whole entry): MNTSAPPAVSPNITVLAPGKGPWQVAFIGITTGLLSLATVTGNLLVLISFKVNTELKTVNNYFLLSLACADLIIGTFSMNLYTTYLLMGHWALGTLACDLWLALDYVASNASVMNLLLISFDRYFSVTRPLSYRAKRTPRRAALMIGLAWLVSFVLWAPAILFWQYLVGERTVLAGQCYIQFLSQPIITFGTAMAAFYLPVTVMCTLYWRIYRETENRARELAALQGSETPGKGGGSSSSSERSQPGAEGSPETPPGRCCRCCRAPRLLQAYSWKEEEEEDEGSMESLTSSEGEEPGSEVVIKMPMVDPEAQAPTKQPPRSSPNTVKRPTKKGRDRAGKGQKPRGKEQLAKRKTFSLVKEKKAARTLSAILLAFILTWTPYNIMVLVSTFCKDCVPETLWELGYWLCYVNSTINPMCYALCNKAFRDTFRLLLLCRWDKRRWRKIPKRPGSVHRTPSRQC
# METHOD SUMMARY: Binding affinity towards human muscarinic M1 receptor in CHO-KI cells using [3H]- QNB as radioligand
READOUT KIND: Ki (nM)

C[C@@H]1OC(=O)[C@H]2C[C@H]3CCCC[C@@H]3[C@@H](CCCN3CCCC(C)(C)C3)[C@@H]12 = 416

P = CC1CCCN(CCC[C@@H]2[C@H]3CCCC[C@@H]3C[C@@H]3C(=O)O[C@@H](C)[C@H]23)C1 (stereo partly drawn)
Q = CC1CN(CCC[C@@H]2[C@H]3CCCC[C@@H]3C[C@@H]3C(=O)O[C@@H](C)[C@H]23)CC(C)N1 (stereo partly drawn)
Incoming: # return whichever of P and Q has the smaller Ki Mark your selection by writing its label.
Outgoing: P
